MEASUREMENT DESCRIPTION: Metabolic stability in rat liver microsomes (RLMs)
DETAILS: rat, microsomes, pH 7.4, RLM CL Mean, rat liver microsomes, mean of R1-R3
PROPERTY: microsomal CLint at 10 μM (µL/min/mg)
Give your result in µL/min/mg as a bare value.

In: Which microsomal CLint at 10 μM value belongs to C[C@]12CC[C@H]3[C@@H](CCC4=CC(=O)CC[C@@]43C)[C@@H]1CC[C@@H]2O [Testosterone, reference compound] ?
Out: 622

====

MEASUREMENT DESCRIPTION: Metabolic stability in rat liver microsomes (RLMs)
DETAILS: rat, CL (ul/min/mg protein), R3, RLM CL, replicate R3, unrounded
PROPERTY: microsomal CLint (µL/min/mg)
Write the value in µL/min/mg as a bare number.

INSERT INTO results (molecule, property, numeric_readout) VALUES
  ('O=C1C[C@H]2CCCN2C(=O)[C@H](Cc2ccccc2)NC(=O)[C@@H](NC(=O)c2ccc(Cl)s2)CSC/C=C/CSCCN1 [peptide 32]', 'microsomal CLint', 234);

In: Look at this molecule and give its reported microsomal CLint. O=C1C[C@H]2CCCN2C(=O)[C@H](Cc2ccccc2)NC(=O)[C@@H](NC(=O)c2ccc(Cl)s2)CSCc2cccc(n2)CSCCN1
Out: 49.4

In: Can you look up the measured microsomal CLint of O=C1C[C@H]2CCCN2C(=O)[C@H](Cc2ccccc2)NC(=O)[C@@H](NC(=O)c2ccc(Cl)s2)CCCSCc2cccc(n2)CSCCN1 for me?
Out: 88.3

In: Entry O=C1C[C@H]2CCCN2C(=O)[C@H](Cc2ccccc2)NC(=O)[C@@H](NC(=O)c2ccc(Cl)s2)CCSCc2cccc(n2)CSCCN1 has what microsomal CLint?
Out: 58.8

In: Query (molecule): O=C1C[C@H]2CCCN2C(=O)[C@H](Cc2ccccc2)NC(=O)[C@@H](NC(=O)c2ccc(Cl)s2)CCSC/C=C/CSCCN1 ; field requested: microsomal CLint
Out: 66.4

====

Entries annotated with measured remaining at 8 h
TEST TARGET: porcine pepsin (Sus scrofa, UniProt P00791)
Construct: 0.32 g of porcine pepsin (Sigma-Aldrich, P7125) was dissolved under gentle agitation; purchased Sigma-Aldrich P7125
Sequence (P00791 60-385): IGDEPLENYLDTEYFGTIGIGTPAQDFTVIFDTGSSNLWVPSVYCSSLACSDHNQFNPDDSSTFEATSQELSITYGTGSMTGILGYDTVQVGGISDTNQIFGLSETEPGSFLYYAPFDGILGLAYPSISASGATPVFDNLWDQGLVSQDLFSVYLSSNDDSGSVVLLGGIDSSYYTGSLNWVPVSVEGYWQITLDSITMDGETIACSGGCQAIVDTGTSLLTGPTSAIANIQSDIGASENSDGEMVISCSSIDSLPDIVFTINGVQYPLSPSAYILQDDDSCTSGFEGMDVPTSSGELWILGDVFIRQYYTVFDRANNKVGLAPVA
MEASUREMENT DESCRIPTION: Peptide stability in simulated gastric fluid (SGF)
Assay type: in vitro ADME
DETAILS: simulated gi fluid; 8 h, 37 °C, pH 1.2; read-out: Proteolytic stability: SGF (8 h) % remaining
The reply should be a number in %, with the unit left off.

INSERT INTO results (molecule, numeric_readout) VALUES
  ('C[C@@H]1NC(=O)[C@@H](NC(=O)c2ccc(Cl)s2)CNC(=O)CCSCc2cccc(n2)CSCCNC1=O', 100),
  ('O=C1C[C@H]2CCCN2C(=O)[C@H](Cc2ccccc2)NC(=O)[C@@H](NC(=O)c2ccc(Cl)s2)CCCSC/C=C/CSCCN1', 87),
  ('C[C@@H]1NC(=O)[C@@H](NC(=O)c2ccc(Cl)s2)CSCc2cccc(n2)CSCCNC(=O)[C@H]2CCCN(C2)C1=O', 90);

In: # query: remaining at 8 h of entry O=C1CSCCC[C@H](NC(=O)c2ccc(Cl)s2)C(=O)N[C@@H](Cc2ccccc2)C(=O)N2CCC[C@@H]2CC(=O)NCCSC1
Out: 106

In: GET /values?readout=remaining at 8 h&item= NC(=O)NCCC[C@@H]1NC(=O)[C@@H](NC(=O)c2ccc(Cl)s2)CNC(=O)CCSCc2cccc(n2)CSCCNC1=O
Out: 97

In: Suppose we examine the molecule O=C1C[C@H]2CCCN2C(=O)[C@H](Cc2ccccc2)NC(=O)[C@@H](NC(=O)c2ccc(Cl)s2)CSC/C=C/CSCCN1 [peptide 32] ; what remaining at 8 h value has been reported?
Out: 107
